Biological target: T1, C5 peptide 45-124 fused to GST-tag (human, UniProt P01031 45-124)
T1 construct: not shown: GST-tag (glutathione S-transferase); vector and linker not restated
T1 sequence (P01031 45-124): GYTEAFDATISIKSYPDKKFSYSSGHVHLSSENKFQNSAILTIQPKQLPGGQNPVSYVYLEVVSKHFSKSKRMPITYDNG
Assay: summary drawing of the binding reactions to C5 beta-chain fragments

- BINDER: "CFA0538 (antibody, V domains shown, Chimeric, rabbit V regions; also called CFA0538-F760G4) VH: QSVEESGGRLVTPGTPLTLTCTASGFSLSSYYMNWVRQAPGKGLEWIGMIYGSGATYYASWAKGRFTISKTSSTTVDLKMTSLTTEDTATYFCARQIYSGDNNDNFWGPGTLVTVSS VL: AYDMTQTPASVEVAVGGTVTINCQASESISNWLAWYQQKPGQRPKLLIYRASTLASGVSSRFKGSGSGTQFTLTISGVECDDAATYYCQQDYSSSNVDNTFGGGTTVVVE"
  binding result: "no binding"
- BINDER: "CFA0307 (antibody, V domains shown, Chimeric, rabbit V regions; also called CFA0307-F760G4) VH: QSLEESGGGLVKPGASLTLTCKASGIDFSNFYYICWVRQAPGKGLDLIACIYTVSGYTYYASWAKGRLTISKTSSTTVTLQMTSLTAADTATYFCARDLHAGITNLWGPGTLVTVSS VL: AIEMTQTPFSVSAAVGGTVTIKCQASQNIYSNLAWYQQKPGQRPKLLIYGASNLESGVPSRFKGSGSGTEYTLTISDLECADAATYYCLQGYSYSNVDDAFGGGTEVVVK"
  binding result: "no binding"
- BINDER: "CFA0501 (antibody, V domains shown, Chimeric, rabbit V regions; also called CFA0501-F760G4) VH: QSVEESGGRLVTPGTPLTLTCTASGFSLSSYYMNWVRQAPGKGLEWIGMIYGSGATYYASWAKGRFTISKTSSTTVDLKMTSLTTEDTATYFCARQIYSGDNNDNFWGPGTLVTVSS VL: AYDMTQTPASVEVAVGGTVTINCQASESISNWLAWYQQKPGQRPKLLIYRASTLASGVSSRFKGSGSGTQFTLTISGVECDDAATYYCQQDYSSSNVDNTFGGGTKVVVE"
  binding result: "no binding"
- BINDER: "CFA0366 (antibody, V domains shown, Chimeric, rabbit V regions; also called CFA0366-F760G4) VH: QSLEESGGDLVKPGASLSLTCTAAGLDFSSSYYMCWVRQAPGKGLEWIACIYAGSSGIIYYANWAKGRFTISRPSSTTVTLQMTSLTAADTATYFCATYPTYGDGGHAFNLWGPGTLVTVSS VL: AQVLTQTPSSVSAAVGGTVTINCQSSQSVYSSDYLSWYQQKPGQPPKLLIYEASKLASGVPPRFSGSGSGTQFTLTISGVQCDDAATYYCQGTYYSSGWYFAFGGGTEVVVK"
  binding result: "no binding"
